B1: Pre-mRNA-processing factor 40 homolog B, residues 274 to 332; numbered along this chain, Q6NWY9 (parent)
chain: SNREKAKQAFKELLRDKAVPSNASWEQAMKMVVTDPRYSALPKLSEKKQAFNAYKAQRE

# Variants of: B1
# methodNotes: abundance fitness (aPCA) (normalised: wild type 0, dead -1); higher = more abundant; growth selection in yeast, the domain comes from the species named
# particulars: Homo sapiens
readoutKind: abundance fitness
Please give the numeric answer without any surrounding text.

Use these answered entries as a reference point.
Problem: Which measured abundance fitness value corresponds to A50D ?
Result: -0.299

Problem: Similarly, R58G ?
Result: 0.093

Problem: Similarly, S21N ?
Result: -0.492

Problem: Similarly, Q27H ?
Result: -0.096

Problem: Similarly, L14Q ?
Result: -0.339

***
Problem: Which measured abundance fitness value corresponds to E4R ?
Result: -0.45

Problem: Similarly, L44V ?
Result: -0.107

Problem: Similarly, Q27R ?
Result: -0.342

Problem: Similarly, A9E ?
Result: -0.038

Problem: Similarly, K30L ?
Result: -0.42

Problem: Similarly, K43V ?
Result: -0.482

Problem: Similarly, Q8W ?
Result: -0.581

Problem: Similarly, V32G ?
Result: -0.381

Problem: Similarly, Q57S ?
Result: 0.027

Problem: Similarly, D35Q ?
Result: -0.823

Problem: Similarly, K55A ?
Result: -0.304

Problem: Similarly, T34E ?
Result: -0.039

Problem: Similarly, S24K ?
Result: -0.229

Problem: Similarly, V33E ?
Result: 0.169

Problem: Similarly, S39W ?
Result: -0.278

Problem: Similarly, K17N ?
Result: -0.07

Problem: Similarly, S39Y ?
Result: -0.247

Problem: Similarly, P20E ?
Result: -0.364

Problem: Similarly, Q57E ?
Result: 0.248

Problem: Similarly, E26M ?
Result: -0.325

Problem: Similarly, L41D ?
Result: -0.439

Problem: Similarly, K5T ?
Result: -0.042

Problem: Similarly, A9H ?
Result: -0.458

Problem: Similarly, K11H ?
Result: -0.17

Problem: Similarly, S39A ?
Result: -0.02

Problem: Similarly, A28R ?
Result: -0.607

Problem: Similarly, A28M ?
Result: -0.576

Problem: Similarly, V19S ?
Result: -0.533

Problem: Similarly, Q49A ?
Result: 0.112
